# test_system: Acetylcholinesterase (Electrophorus electricus, UniProt O42275)
# Sequence (O42275 whole entry): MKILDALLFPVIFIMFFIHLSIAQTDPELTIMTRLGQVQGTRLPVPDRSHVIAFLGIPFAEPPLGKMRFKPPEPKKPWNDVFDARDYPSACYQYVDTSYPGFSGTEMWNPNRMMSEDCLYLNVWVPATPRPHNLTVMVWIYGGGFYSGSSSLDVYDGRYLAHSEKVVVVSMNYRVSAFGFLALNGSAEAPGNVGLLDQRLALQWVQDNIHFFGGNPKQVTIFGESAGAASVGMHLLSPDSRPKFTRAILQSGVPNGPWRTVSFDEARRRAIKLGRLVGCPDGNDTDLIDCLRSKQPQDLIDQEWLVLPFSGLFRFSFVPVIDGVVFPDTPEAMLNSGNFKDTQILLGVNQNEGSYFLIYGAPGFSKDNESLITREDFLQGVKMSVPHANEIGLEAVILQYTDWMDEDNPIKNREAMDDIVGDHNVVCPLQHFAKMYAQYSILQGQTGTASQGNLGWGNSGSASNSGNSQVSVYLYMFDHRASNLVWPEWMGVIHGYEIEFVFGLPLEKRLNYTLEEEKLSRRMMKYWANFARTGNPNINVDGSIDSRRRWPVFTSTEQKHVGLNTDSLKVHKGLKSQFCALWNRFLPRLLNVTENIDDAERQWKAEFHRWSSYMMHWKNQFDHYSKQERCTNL
value_kind: pIC50
When answering, recall that pIC50 equals minus log10 of the concentration in mol/L, and write that number alone.

Dear colleague, I am looking for the recorded pIC50 of the following molecule: C=C[C@H]1CO[C@@H]2C[C@H]1Cc1c3[nH]c4ccccc4c3cc[n+]12
5.00

Repeat for the following molecule: C=C[C@H]1CO[C@@H]2C[C@H]1C(=O)c1c3[nH]c4ccccc4c3cc[n+]12
5.47

These measurements were taken from ChEMBL document CHEMBL4130547.
